Measured abundance fitness by item
B1: Zinc finger homeobox protein 3, residues 2643 to 2698; numbered along this chain, Q15911 (parent)
chain: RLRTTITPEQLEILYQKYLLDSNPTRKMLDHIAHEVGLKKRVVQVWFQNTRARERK

Variants of: B1
Procedure details: abundance fitness (aPCA) (normalised: wild type 0, dead -1); higher = more abundant; growth selection in yeast, the domain comes from the species named
Details: Homo sapiens
Output spec: single numeric token, no unit.

W46S    -0.867
Q48D    0.505

Incoming: Which abundance fitness value belongs to `L20R` ?
Outgoing: -0.331

Incoming: Query `A52E` next
Outgoing: 0.291

Incoming: Query `E9R` next
Outgoing: -0.277
